Provenance of the data: patent US20250186405A1

test: Part 1 SAD: plasma pharmacokinetics after single oral dose; format: in vivo, human; settings: human, plasma, oral; 50 mg single dose, geometric mean, N = 2

{"columns": ["Compound", "half-life"],
 "data": [
  ["CS(=O)(=O)N[C@H]1CCCN2C(=O)COc3ccccc3C3CCC(CC3)OCC12 (stereo partly shown)", "7.34 h"]
]}

====

Test: Part 1 SAD: plasma pharmacokinetics after single oral dose
Assay type: in vivo, human
Details: human, plasma, oral; 50 mg single dose, median; read-out: Tmax
Experimental: There were approximately 8 subjects per cohort. Dose levels were as follows: Blood samples (up to 5 mL per sample) were collected for PK analysis of Compound A and its metabolite(s). The actual time of sample collection was recorded. The PK samples of the subjects randomized to placebo treatment were not analyzed. […] Plasma and urine concentrations of Compound A and its metabolite(s) were measured using a validated high-performance liquid chromatography with tandem mass spectrometry. […]

{"columns": ["Molecule", "Tmax"],
 "data": [
  ["CS(=O)(=O)N[C@H]1CCCN2C(=O)COc3ccccc3C3CCC(CC3)OCC12 (stereo partly shown)", "2 h"]
]}
